target: Follistatin-related protein 3 (Homo sapiens) (UniProt O95633); assay: compounds binding follistatin-related protein 3 – biochemical, small-molecule microarray, 635 nm fluorescence, primary screen (AID 1105); settings: FSTL3 binding, higher = more signal;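 further: score merges emission near 667 nm and signal to noise per printed spot across three slides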
Sequence (O95633 whole entry, looked up): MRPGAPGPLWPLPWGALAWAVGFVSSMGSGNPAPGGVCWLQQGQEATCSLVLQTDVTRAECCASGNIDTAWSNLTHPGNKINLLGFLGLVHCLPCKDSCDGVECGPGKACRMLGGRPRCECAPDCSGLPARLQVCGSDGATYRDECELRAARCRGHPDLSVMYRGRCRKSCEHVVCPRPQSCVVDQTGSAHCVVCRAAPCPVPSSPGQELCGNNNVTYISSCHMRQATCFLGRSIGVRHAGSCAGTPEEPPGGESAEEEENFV
Please provide measured composite z-score for the entries that follow.
Numbers only.

Cc1cc(C)c(C(O)C2C=CC3C(=O)NC(=O)C3N2Nc2ccccn2)c(C)c1 (centres undefined)	0.547
COc1ccc([Si](C)(C)[C@@H]2[C@@H](CCn3cc([C@H](O)c4ccccc4)nn3)O[C@]3(C(=O)N(C)c4ccccc43)[C@H]2C)cc1	-0.291
COC(=O)[C@@]1(Cc2ccc(F)cc2)[C@H]2c3cc(C(=O)N4CCCC4)n(CCc4ccc(OC)c(Br)c4)c3C[C@H]2CN1C(=O)c1ccccc1	1.22
O=C(NCC(F)(F)F)[C@@H]1c2ccccc2C(=O)N(Cc2ccccc2)[C@H]1c1ccc(CO)cc1	-1.12
O=C1OCCC/C=C\[C@H]2OC34C=CCN(CCN5CCOCC5)C(=O)[C@H]3N(CCO)C(=O)[C@@H]4C12 (some centres undefined)	-1.14

# return composite z-score for each item in the list
1. COc1ccc([Si](C)(C)[C@H]2[C@H](CCO)O[C@@]3(C(=O)N(Cc4cccc(N5C(=O)c6cccc7cccc5c67)c4)c4ccccc43)[C@@H]2C)cc1
2. [N-]=[N+]=NCc1ccccc1C[C@@]1(C(=O)NCc2ccccc2)N=C(c2ccc(OCCCO)cc2)O[C@@H]1c1ccccc1CN=[N+]=[N-]
3. COc1ccc(C#Cc2ccc3c(c2)[C@]2(C(=O)N3)[C@H](C(=O)N3CCN(c4ncccn4)CC3)[C@H]3C(=O)O[C@H](c4ccccc4)[C@H](c4ccccc4)N3[C@@H]2c2ccc(O)cc2)cc1
4. C=CCC(OC(C)=O)[C@@H]1[C@@H](N(Cc2ccc(-c3cccc(C(F)(F)F)c3)o2)C(=O)Cc2ccc(OC)cc2)c2cc(OCCCO)ccc2N1C(=O)Cc1ccc(OC)cc1 (some centres undefined)

Ans.
1: 0.277; 2: -0.0894; 3: 0.743; 4: -0.391

###

assay: basal CRE-LacZ reporter activity in PC12 – cell-based, unstimulated, primary screen (AID 1145); conditions: no forskolin, luminescence, 4.5 h, higher = more signal, called active from +8 up or from −8 down
Decision: z-score >= -0.4 yields Condition met, all other cases yield Condition not met.

COCCn1c(C(=O)N2CCCC2)cc2c1C[C@H]1CN(C(=O)c3ccccc3)[C@@](Cc3ccc(OC)cc3)(C(=O)OC)[C@@H]21	Condition not met
O=C1O[C@@H](c2ccccc2)[C@@H](c2ccccc2)N2[C@@H](c3ccc(O)cc3)[C@]3(C(=O)Nc4ccccc43)[C@@H](C(=O)N3CCCCCCC3)[C@H]12	Condition met
O=C1OCCC=C[C@H]2OC34C=CCN(c5ccc6ccccc6c5)C(=O)[C@H]3N(CCCCCCO)C(=O)[C@@H]4C12 (stereo partly drawn)	Condition met
O=C1OCCC=C[C@H]2OC34C=CCN(CCN5CCOCC5)C(=O)[C@H]3N(CCO)C(=O)[C@@H]4C12 (stereo partly drawn)	Condition met
Cc1ccc(N2C(=O)c3ccccc3[C@](C)(C(=O)NCCN3CCOCC3)[C@@H]2c2ccc(CO)cc2)nc1	Condition met
CC(C)N1C(=O)c2ccccc2[C@](C)(C(=O)NC2CC2)[C@@H]1c1ccc(CO)cc1	Condition met
O=C1[C@H]2C=C(Br)[C@H](C[C@@H]2OCCOCCO)[C@@]12CO2	Condition not met

Qu. Given CCCC[C@@H]1C[C@H]1[C@@H](NC(=O)c1ccccc1)c1ccc(-c2ccccc2)cc1 , state whether its z-score is at least -0.4.
Ans. Condition met
